# Test system: UO-31 renal
# experiment.summary: NCI tumour cell line growth inhibition, 48 h
Where a SMILES comes first, the peptide text is derived from it.
TGI overview

| compound | TGI |
| --- | --- |
| CN(C)c1ccc(/C=C(\NC(=O)c2ccccc2)C(=O)Nc2cccc(C(=O)NCCCO)c2)cc1 | > 100 µM |
| COc1cc2c(c(OC)c1OC)-c1c(c3ccc([N+](=O)[O-])cc3c(=O)n1CCCN)C2=O | 1.68 µM |
| COc1cc(C2OC[C@@H]3C(=O)OC[C@H]23)cc(O)c1OC (some centres undefined) | > 100 µM |
| CC(=O)OCCCC#CC#Cc1cccc(=O)o1 | > 100 µM |
| COc1ccc2c(c1)CCCc1c-2nc2ccccc2c1N | 18.5 µM |
| O=C(Cc1nc2ccc([N+](=O)[O-])cc2[nH]c1=O)C(=O)Nc1ccccc1[N+](=O)[O-] | > 100 µM |
| COc1ccc(-c2[nH]nc(N)c2-c2cc(OC)c(OC)c(OC)c2)cc1 | 66.7 µM |
| COc1ccc2c(c1)C(c1cc(OC)c3c(c1)OCO3)C1=C(COC1=O)N2 (centres undefined) | > 100 µM |
| Cc1ccc(C(=O)Oc2ccc(/C=C3\CCC/C(=C\c4ccc(OC(=O)c5ccc(C)cc5)cc4)C3=O)cc2)cc1 | > 100 µM |
| O=[N+]([O-])c1ccc2c(c1)C(c1ccccc1Cl)=Nc1c(n[nH]c1-c1cccnc1)N2 | > 25 µM |
| COC(=O)C1[C@H](c2ccc3c(c2)OCO3)OC(=O)[C@]1(C(=O)OC)C(=O)c1ccc(OC)c(OC)c1 (some centres undefined) | > 100 µM |
| CC1=N[C@@](C)(C2CC3C=CC2C3=O)COC1=O (some centres undefined) | > 100 µM |
| COc1cccc(NC(=O)CC(=O)NN2C(=O)/C(=C/c3ccc(N(CCC#N)CCC#N)cc3)N=C2c2cc([N+](=O)[O-])ccc2Cl)c1 | > 100 µM |
| COc1ccc(-c2cn(-c3cc(OC)c(OC)c(OC)c3)c(=O)[nH]2)cc1OC | > 100 µM |
| CN(C)C(=NC#N)N(Cc1ccccc1)Cc1ccccc1 | > 100 µM |
| COc1cc(CNc2c3ccccc3nc3ccccc23)cc(OC)c1OC | 11.5 µM |
| O=c1[nH]c(=O)n(CCOc2ccc(Cl)cc2)cc1Nc1ccccc1 | > 100 µM |
| C/C=C(\C)C(=O)O[C@H]1C=CC(=O)O[C@H]1COC(=O)[C@H](C)O | 25.5 µM |
| COC(=O)[C@@H](C)C[C@H](Cc1ccccc1)NC(=O)c1csc([C@@H](C[C@H](C(C)C)N(C)C(=O)[C@@H](NC(=O)[C@H]2CCCN2C)C2CC2)OC(C)=O)n1 | > 25 µM |
| Nc1cc(Cl)ccc1SSc1ccc(Cl)cc1N | 22.1 µM |
| CC/C=C\C[C@H](O)C/C=C1/C(=O)C=C[C@@H]1C/C=C\CCCCO | 3.23 µM |
| COc1ccc(N=Nc2c(N)nn(C)c2N)cc1 | > 100 µM |
| NC(CCCCNCc1ccccc1)C(=O)O (centres undefined) | > 100 µM |
| Cn1cc(-c2nnc(-c3ccc(Cl)cc3)[nH]c2=O)c2ccccc21 | > 47 µM |
| Cc1cccc(C)c1N=Nc1ccc(O)c(CN(C)C)c1 | > 100 µM |
| O=C(O)CN(c1ccc(F)cc1)S(=O)(=O)c1ccccc1 | > 100 µM |
| CC1(C)CCCCCCCCCC2CC2CCC(C)(C)C1=O (centres undefined) | 36.9 µM |
| O=C1/C(=C/c2ccc(O)c(O)c2)CC/C1=C\c1ccc(O)c(O)c1 | 7.31 µM |
| CCN(CC)Cc1cc(Nc2ccnc3ccc4nn(C)nc4c23)ccc1O | 54 µM |
| Cc1cc(S(=O)(=O)NC(=NCCc2ccccc2)NN)c(S)cc1Cl | 56.9 µM |
| CCC(C)C(NC(=O)C(CC(C)C)NC(=O)CNC(=O)C(NC(=O)C1CCCN1C(=O)C(CC(C)C)NC(=O)C(N)Cc1ccccc1)C(C)CC)C(=O)NC(CC(C)C)C(N)=O (centres undefined) (H-FLPIGLIL-NH2; configuration not given here) | > 75 µM |
| CN1C(=O)C2(c3ccccc31)C1CC3C(CO1)C1C2C3(CO)CN1C#N (centres undefined) | > 100 µM |
| C=CCOC(=O)Nc1cccn([C@H](CC(C)C)C(=O)NCCC(C)C)c1=O | > 100 µM |
| CC(C(=O)n1ccnc1)N1c2ccccc2Sc2ccccc21 (centres undefined) | > 100 µM |
| CCCCCCCCCCOCCOCCOCCOCCCCC(O)CCCCCCCC1=C[C@H](C)OC1=O (some centres undefined) | 18.3 µM |
| CCOc1cccc(-c2cc(=O)c3cc4c(cc3[nH]2)OCO4)c1 | 35.2 µM |
| CS(=O)(=O)O[C@H]1[C@H](O)c2ccccc2[C@@H]1N=[N+]=[N-] | > 100 µM |
| O=c1[nH]c2c(c(=O)[nH]1)C(c1ccc([N+](=O)[O-])cc1)c1c([nH]c(=O)[nH]c1=O)O2 | > 100 µM |
| Cc1ccc(-c2nnc3s/c(=C\c4ccc(N(C)C)cc4)c(=O)n23)cc1 | > 100 µM |
